Biological target: GlcNAc(b1-3)Man
Assay: glycan array binding signal (z-score within array); higher = stronger binding
Conditions: glycan notation: IUPAC condensed, linker removed
About 410 targets per protein were measured; listed, in parts, are those with the strongest signals and a random draw of the rest.
# key: entry, value: glycan array binding signal (z-score)
Measurement Label: glycan array binding signal (z-score)

* Tamarinin (protein) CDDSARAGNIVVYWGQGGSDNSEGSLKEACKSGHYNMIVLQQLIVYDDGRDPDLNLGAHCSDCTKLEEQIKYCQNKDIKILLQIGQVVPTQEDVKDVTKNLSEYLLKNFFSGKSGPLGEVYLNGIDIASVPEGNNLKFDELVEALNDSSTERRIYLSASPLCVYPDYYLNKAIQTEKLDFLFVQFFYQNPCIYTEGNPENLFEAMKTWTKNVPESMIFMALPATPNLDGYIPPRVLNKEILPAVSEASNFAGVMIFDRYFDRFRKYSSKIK | 0.095
* PpFlo3 (Pichia pastoris) (protein) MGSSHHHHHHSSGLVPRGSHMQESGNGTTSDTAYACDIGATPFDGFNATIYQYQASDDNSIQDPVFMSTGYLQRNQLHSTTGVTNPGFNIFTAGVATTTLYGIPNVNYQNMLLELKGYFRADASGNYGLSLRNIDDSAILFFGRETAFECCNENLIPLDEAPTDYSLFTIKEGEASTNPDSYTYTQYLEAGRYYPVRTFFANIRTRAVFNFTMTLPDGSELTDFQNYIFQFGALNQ | 6.76
* HPL (Tachypleus tridentatus) (protein) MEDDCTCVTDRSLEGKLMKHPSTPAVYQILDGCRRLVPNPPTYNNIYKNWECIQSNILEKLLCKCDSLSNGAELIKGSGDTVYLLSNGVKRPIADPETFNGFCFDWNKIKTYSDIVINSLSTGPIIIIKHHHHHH | 0.24
* OS9 (Arabidopsis thaliana) (protein) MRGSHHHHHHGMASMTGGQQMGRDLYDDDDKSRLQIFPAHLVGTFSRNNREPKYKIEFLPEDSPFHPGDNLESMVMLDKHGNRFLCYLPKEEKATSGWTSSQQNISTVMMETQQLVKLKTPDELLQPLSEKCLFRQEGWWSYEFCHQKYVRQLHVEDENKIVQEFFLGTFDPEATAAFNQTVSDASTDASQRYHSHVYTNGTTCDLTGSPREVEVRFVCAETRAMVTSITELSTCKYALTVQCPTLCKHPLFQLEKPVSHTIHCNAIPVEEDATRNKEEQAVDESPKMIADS | 0.127
* Mermaid3 (Stilbonema majum) (protein) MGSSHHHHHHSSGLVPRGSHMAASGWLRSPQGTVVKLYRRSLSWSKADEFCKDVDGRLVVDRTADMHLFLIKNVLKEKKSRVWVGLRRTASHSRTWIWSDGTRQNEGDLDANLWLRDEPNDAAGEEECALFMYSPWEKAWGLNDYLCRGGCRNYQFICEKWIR | 5.11
